Recorded values, source patent US20240132589A1.

# assayed-system: T1, Human LILRA5 on transiently transfected HEK293-6E cells (human, UniProt A6NI73 42-299)
# T1 construct: whole, on cells; also called hLILRA5
# T1 sequence (A6NI73 42-299): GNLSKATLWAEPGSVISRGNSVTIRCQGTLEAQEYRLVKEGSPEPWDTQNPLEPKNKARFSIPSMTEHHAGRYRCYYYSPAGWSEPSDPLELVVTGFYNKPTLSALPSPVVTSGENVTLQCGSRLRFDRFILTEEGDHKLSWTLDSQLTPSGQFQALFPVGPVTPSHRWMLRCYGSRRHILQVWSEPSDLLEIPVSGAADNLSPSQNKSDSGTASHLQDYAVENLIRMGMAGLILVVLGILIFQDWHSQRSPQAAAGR
# protocol: flow cytometry, transiently transfected HEK293-6E cells
measured-attribute: Bmax (MFI)
Write the answer as a number in MFI, unit excluded.

Here are 2 binders together with their reported answers.
{"binder": "B2H1-11 (antibody, V domains shown, Humanized variant, human IgG1 / kappa) VH: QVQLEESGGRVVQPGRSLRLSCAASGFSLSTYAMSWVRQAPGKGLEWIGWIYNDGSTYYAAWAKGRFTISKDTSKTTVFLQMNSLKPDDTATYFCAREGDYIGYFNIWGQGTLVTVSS VL: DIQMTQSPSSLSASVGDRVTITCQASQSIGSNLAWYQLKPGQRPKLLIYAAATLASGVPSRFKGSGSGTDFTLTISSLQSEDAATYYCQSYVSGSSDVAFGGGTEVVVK", "measured-attribute": "Bmax (MFI)", "reported": 124}
{"binder": "B2H1-35 (antibody, V domains shown, Humanized variant, human IgG1 / kappa) VH: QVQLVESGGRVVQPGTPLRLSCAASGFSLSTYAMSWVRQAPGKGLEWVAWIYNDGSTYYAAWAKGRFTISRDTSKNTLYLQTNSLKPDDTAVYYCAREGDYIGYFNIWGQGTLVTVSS VL: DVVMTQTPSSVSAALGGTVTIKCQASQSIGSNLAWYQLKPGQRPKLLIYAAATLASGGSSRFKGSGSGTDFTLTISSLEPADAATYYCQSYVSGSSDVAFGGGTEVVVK", "measured-attribute": "Bmax (MFI)", "reported": 122}

# ---- query binder ----
Prompt: Bench note: what Bmax (MFI) did B2H1-52 (antibody, V domains shown, Humanized variant, human IgG1 / kappa) VH: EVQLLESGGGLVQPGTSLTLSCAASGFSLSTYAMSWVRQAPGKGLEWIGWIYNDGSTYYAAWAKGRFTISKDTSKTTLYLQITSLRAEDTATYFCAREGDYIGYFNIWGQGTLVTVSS VL: DVVMTQSPSSVSASLGDRVTITCQASQSIGSNLAWYQQKPGQAPKLLIYAAATLASGVPSRFKGSGSGTDFTLTITSLQPADFATYYCQSYVSGSSDVAFGGGTKVEIK show?
Response: 123
